Reference for the values: patent US8580809B2

targetEntity: mu opiate receptor (MOR) (Rattus norvegicus, UniProt P33535)
Construct: from tissue; host or cells: rat striatal membrane preparation
Sequence (P33535 whole entry): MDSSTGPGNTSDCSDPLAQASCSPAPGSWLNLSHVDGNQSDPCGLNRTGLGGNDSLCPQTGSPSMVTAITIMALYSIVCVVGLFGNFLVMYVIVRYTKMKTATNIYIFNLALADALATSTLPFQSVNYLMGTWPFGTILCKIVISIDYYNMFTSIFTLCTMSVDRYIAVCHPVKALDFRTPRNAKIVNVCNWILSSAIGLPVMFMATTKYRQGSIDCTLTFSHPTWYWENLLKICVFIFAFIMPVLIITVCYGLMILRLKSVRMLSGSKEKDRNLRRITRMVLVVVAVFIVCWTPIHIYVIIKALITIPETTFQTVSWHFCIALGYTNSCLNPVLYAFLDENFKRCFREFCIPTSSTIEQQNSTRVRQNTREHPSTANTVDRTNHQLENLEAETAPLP
protocolDetails: MOR agonist activity using [35S]GTPγS binding assay in striatal membranes
Format: biochemical
measurementParameters: 1 μM compound, striatal membranes
// reported MOR agonist activity, [35S]GTPγS binding to Gαo, FLNA-binding compound as agonist 1 μM per item
Output spec: scalar in %, unitless text.

CC(=O)c1ccc(S(=O)(=O)N2CCC3(CC2)OCC(CCCCN(C)C)N3S(=O)(=O)c2ccc(C(C)=O)cc2)cc1 (stereo not drawn) [Compound C0080M]; 205.4
O=S(=O)(c1ccc(OC(F)(F)F)cc1)N1CCC2(CC1)OCCN2S(=O)(=O)c1ccc(OC(F)(F)F)cc1 [Compound C0006]; 204.0

Note MOR agonist activity, [35S]GTPγS binding to Gαo, FLNA-binding compound as agonist 1 μM for the molecule shown: N#Cc1ccc(S(=O)(=O)N2CCC3(CC2)OCCN3S(=O)(=O)c2ccc(C#N)cc2)cc1 [Compound C0008]
201.6
